Cited source: ChEMBL document CHEMBL4229410

- studyTarget: Mitogen-activated protein kinase 11 (Homo sapiens)
- experimentalDetails: Binding affinity to full length human p38beta (M1 to Q364 residues) expressed in bacterial expression system by KINOMEscan assay
quantity: Kd

Kd measured on CC(C)CN(C(=O)c1cccnc1)c1c2ccccc2c(=O)n2c1[nH]c1ccccc12 = ≥ 5 µM

---

- studyTarget: ALK tyrosine kinase receptor (Homo sapiens, UniProt Q9UM73)
- Sequence (Q9UM73 whole entry): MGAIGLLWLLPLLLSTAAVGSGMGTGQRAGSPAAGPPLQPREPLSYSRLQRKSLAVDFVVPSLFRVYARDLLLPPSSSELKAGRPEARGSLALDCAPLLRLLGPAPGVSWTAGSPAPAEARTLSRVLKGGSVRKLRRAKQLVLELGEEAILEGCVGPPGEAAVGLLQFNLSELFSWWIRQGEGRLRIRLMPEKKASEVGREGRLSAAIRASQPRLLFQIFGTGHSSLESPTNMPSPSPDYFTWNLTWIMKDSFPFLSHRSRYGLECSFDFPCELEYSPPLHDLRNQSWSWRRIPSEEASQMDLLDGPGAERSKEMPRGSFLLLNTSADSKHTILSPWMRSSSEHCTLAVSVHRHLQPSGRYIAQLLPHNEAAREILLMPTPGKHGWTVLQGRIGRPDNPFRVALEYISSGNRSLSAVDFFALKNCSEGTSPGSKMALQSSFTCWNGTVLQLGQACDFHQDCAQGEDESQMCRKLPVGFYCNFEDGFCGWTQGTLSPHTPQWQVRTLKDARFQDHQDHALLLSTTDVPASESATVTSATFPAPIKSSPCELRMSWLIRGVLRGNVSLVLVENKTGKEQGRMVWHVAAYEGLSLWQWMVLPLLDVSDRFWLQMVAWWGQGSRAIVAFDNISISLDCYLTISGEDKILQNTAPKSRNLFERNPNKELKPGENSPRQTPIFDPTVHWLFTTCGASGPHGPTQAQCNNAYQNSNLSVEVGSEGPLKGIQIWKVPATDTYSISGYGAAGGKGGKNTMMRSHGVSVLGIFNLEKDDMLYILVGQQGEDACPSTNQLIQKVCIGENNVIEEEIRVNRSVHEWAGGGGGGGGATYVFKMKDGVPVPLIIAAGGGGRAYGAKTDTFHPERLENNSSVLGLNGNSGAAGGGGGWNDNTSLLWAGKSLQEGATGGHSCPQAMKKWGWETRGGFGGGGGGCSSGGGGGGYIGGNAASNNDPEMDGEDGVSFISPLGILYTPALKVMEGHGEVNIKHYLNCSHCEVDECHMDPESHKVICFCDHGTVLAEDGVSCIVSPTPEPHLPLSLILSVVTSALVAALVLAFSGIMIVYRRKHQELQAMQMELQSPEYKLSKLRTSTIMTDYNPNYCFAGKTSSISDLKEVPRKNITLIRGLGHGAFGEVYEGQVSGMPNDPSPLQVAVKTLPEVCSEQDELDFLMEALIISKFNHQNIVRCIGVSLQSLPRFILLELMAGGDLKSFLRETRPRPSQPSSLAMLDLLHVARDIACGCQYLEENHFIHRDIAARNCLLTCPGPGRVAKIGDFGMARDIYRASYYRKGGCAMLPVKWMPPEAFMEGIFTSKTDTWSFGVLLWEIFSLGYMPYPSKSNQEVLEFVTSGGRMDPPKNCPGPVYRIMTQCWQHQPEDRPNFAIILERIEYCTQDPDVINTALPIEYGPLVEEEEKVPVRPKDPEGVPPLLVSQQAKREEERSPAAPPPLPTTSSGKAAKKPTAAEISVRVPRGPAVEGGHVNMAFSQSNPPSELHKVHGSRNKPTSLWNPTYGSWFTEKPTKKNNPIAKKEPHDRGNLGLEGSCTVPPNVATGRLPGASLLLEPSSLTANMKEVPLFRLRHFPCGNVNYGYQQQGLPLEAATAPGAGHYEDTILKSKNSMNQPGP
pKd: −log10 of the molar value.
quantity: pKd

pKd for ALK tyrosine kinase receptor (Homo sapiens, UniProt Q9UM73) with input CC(C)CN(C(=O)c1cccnc1)c1c2ccccc2c(=O)n2c1[nH]c1ccccc12 equals ≤ 5.30

---

- studyTarget: Serine/threonine-protein kinase PLK1 (Homo sapiens)
pKd: −log10 of the molar value.
quantity: pKd

pKd measured on CC(C)CN(C(=O)c1cccnc1)c1c2ccccc2c(=O)n2c1[nH]c1ccccc12 = ≤ 5.30

---

- studyTarget: RAF proto-oncogene serine/threonine-protein kinase (Homo sapiens, UniProt P04049)
pKd: −log10 of the molar value.
quantity: pKd

pKd measured on CC(C)CN(C(=O)c1cccnc1)c1c2ccccc2c(=O)n2c1[nH]c1ccccc12 = ≤ 5.30

---

- studyTarget: Mitogen-activated protein kinase 9 (Homo sapiens, UniProt P45984)
- Sequence (P45984 whole entry, the tested form may be a part): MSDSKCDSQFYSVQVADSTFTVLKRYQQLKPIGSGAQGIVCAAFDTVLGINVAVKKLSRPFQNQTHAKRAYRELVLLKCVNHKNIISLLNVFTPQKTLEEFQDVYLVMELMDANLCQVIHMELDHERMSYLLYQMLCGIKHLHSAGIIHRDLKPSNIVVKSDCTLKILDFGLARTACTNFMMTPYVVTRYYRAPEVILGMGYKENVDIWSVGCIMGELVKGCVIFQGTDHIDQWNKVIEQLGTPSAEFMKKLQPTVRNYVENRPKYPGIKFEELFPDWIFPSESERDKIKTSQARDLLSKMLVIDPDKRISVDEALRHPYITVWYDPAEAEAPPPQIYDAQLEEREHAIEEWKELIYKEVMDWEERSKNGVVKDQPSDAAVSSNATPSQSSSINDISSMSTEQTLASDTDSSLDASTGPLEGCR
- experimentalDetails: Binding affinity to full length human JNK2 (M1 to Q382 residues) expressed in mammalian expression system by KINOMEscan assay
pKd: −log10 of the molar value.
quantity: pKd

pKd measured on CC(C)CN(C(=O)c1cccnc1)c1c2ccccc2c(=O)n2c1[nH]c1ccccc12 = ≤ 5.30

---

- studyTarget: Tyrosine-protein kinase ABL1 (Homo sapiens, UniProt P00519, T315I)
- experimentalDetails: Binding affinity to human phosphorylated ABL1 T315I mutant (S229 to K512 residues) expressed in mammalian expression system by KINOMEscan assay
pKd: −log10 of the molar value.
quantity: pKd

pKd measured on CC(C)CN(C(=O)c1cccnc1)c1c2ccccc2c(=O)n2c1[nH]c1ccccc12 = ≤ 5.30

---

- studyTarget: Platelet-derived growth factor receptor beta (Homo sapiens)
- Sequence (P09619 whole entry): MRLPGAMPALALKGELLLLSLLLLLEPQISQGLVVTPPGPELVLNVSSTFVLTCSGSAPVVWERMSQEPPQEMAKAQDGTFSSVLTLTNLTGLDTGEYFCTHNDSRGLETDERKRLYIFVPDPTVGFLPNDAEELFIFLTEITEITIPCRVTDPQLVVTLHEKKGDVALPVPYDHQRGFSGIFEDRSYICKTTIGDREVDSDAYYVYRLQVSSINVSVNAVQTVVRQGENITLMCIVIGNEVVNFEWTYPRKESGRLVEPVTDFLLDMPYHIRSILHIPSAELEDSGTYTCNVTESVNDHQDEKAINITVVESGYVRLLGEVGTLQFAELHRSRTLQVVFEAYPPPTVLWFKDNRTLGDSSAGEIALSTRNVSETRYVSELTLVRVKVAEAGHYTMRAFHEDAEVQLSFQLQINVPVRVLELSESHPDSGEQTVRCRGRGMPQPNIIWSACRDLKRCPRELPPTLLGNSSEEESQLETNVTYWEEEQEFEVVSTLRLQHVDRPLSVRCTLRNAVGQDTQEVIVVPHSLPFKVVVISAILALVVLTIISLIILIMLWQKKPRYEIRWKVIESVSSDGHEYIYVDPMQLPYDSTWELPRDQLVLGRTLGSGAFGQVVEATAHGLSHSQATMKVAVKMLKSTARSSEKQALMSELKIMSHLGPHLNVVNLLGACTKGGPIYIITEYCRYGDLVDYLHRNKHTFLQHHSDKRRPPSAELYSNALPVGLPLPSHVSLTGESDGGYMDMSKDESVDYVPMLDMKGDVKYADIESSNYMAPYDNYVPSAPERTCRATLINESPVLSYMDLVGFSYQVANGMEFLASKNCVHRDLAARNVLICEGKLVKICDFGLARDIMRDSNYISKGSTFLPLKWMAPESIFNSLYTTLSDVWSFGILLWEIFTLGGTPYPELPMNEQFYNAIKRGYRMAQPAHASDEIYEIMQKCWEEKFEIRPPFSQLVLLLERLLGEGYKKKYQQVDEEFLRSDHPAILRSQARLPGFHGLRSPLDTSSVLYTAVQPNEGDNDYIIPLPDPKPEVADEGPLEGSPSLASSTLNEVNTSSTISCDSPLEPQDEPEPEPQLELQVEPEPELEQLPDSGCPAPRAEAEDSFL
quantity: Kd

Kd for Platelet-derived growth factor receptor beta (Homo sapiens) with input CC(C)CN(C(=O)c1cccnc1)c1c2ccccc2c(=O)n2c1[nH]c1ccccc12 equals ≥ 5 µM

---

- studyTarget: Mitogen-activated protein kinase 14 (Homo sapiens, UniProt Q16539)
- Sequence (Q16539 whole entry, the tested form may be a part): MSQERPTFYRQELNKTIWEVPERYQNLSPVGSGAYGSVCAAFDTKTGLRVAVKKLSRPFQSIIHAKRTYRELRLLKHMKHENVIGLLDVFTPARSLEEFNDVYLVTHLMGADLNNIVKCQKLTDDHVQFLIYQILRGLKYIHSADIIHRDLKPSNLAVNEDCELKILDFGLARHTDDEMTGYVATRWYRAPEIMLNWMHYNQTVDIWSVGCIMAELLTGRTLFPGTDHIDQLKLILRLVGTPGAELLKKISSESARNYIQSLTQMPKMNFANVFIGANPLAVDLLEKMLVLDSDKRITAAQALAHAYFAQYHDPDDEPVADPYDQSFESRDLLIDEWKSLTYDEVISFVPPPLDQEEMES
- experimentalDetails: Binding affinity to full length human p38alpha (M1 to S360 residues) expressed in bacterial expression system by KINOMEscan assay
quantity: Kd

Kd measured on CC(C)CN(C(=O)c1cccnc1)c1c2ccccc2c(=O)n2c1[nH]c1ccccc12 = ≥ 5 µM

---

- studyTarget: Mitogen-activated protein kinase 10 (Homo sapiens)
- Sequence (P53779 whole entry, the tested form may be a part): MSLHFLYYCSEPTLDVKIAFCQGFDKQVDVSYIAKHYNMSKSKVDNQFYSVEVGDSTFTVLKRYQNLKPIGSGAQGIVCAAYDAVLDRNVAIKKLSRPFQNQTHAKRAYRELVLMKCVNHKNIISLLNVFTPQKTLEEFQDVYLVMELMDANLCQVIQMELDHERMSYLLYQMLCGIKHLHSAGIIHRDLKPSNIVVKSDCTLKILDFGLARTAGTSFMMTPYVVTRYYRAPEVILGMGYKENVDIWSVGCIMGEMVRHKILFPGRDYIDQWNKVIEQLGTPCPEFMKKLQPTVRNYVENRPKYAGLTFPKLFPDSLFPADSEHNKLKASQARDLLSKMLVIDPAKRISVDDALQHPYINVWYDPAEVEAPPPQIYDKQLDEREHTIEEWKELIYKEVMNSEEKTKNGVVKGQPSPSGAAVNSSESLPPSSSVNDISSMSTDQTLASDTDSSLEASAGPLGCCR
- experimentalDetails: Binding affinity to human JNK3 (V28 to Q422 residues) expressed in mammalian expression system by KINOMEscan assay
quantity: Kd

Kd measured on CC(C)CN(C(=O)c1cccnc1)c1c2ccccc2c(=O)n2c1[nH]c1ccccc12 = ≥ 5 µM

---

- studyTarget: Tyrosine-protein kinase ABL1 (Homo sapiens)
- experimentalDetails: Binding affinity to human phosphorylated ABL1 (S229 to K512 residues) expressed in mammalian expression system by KINOMEscan assay
pKd: −log10 of the molar value.
quantity: pKd

pKd measured on CC(C)CN(C(=O)c1cccnc1)c1c2ccccc2c(=O)n2c1[nH]c1ccccc12 = ≤ 5.30

---

- studyTarget: Serine/threonine-protein kinase pim-2 (Homo sapiens)
- experimentalDetails: Binding affinity to human PIM2 (M1 to E291 residues) expressed in bacterial expression system by KINOMEscan assay
pKd: −log10 of the molar value.
quantity: pKd

pKd measured on CC(C)CN(C(=O)c1cccnc1)c1c2ccccc2c(=O)n2c1[nH]c1ccccc12 = ≤ 5.30

---

- studyTarget: Serine/threonine-protein kinase PLK4 (Homo sapiens, UniProt O00444)
- Sequence (O00444 whole entry): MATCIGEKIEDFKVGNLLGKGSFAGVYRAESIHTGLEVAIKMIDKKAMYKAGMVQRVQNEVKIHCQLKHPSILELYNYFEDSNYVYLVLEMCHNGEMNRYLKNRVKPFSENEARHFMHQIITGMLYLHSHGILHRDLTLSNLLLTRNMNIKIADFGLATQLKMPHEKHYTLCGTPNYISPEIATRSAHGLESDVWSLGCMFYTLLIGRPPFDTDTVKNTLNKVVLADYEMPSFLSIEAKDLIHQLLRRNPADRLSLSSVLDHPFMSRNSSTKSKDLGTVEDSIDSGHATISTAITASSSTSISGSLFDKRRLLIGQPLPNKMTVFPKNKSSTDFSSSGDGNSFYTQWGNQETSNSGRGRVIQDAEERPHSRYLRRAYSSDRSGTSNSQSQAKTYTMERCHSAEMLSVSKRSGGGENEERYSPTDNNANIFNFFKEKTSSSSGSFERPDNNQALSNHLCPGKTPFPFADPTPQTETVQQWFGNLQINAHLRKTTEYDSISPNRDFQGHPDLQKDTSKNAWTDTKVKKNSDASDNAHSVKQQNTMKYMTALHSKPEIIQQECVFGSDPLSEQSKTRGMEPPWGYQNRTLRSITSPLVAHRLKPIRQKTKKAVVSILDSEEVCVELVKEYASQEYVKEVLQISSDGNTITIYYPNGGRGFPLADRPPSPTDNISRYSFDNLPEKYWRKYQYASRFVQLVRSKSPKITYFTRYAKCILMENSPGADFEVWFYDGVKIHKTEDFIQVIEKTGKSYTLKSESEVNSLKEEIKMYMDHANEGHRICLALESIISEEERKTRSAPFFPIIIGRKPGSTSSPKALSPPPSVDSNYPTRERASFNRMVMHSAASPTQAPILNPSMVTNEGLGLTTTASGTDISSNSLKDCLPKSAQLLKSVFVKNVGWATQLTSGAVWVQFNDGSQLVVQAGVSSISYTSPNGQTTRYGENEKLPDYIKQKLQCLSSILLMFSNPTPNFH
quantity: Kd

Kd measured on CC(C)CN(C(=O)c1cccnc1)c1c2ccccc2c(=O)n2c1[nH]c1ccccc12 = ≥ 5 µM

---

- studyTarget: Testis-specific serine/threonine-protein kinase 1 (Homo sapiens, UniProt Q9BXA7)
- Sequence (Q9BXA7 whole entry): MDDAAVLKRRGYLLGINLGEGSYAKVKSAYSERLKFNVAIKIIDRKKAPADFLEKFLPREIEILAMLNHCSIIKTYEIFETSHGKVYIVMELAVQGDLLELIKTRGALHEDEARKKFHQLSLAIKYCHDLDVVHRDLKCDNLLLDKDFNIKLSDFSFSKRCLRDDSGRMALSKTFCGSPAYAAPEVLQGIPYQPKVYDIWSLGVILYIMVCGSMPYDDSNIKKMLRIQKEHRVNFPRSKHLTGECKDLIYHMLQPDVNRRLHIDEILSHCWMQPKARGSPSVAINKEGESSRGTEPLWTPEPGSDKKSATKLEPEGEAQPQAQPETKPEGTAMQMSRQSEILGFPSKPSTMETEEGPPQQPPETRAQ
pKd: −log10 of the molar value.
quantity: pKd

pKd measured on CC(C)CN(C(=O)c1cccnc1)c1c2ccccc2c(=O)n2c1[nH]c1ccccc12 = ≤ 5.30

---

- studyTarget: Protein kinase C epsilon type (Homo sapiens, UniProt Q02156)
- Sequence (Q02156 whole entry): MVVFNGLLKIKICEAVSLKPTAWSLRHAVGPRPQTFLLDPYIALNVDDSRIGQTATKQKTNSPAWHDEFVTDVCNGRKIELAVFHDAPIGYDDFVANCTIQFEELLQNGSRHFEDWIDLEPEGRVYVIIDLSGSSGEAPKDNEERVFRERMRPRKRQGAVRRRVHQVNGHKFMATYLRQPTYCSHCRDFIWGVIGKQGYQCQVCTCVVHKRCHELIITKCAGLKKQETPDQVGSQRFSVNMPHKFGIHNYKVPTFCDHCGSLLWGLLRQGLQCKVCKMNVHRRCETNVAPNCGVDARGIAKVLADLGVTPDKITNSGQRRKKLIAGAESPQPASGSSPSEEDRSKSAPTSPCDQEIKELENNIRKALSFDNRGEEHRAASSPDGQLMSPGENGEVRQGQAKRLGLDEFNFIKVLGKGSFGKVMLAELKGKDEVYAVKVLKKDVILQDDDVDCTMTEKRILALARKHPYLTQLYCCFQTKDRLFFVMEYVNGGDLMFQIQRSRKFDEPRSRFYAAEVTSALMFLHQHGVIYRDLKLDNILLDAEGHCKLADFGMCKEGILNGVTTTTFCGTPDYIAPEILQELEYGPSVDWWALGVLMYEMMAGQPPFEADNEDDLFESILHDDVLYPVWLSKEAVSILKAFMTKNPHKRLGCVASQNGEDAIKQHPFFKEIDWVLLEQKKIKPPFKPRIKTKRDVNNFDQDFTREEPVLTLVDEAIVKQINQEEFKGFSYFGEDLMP
quantity: Kd

Kd measured on CC(C)CN(C(=O)c1cccnc1)c1c2ccccc2c(=O)n2c1[nH]c1ccccc12 = ≥ 5 µM

---

- studyTarget: Fibroblast growth factor receptor 3 (Homo sapiens, UniProt P22607)
- Sequence (P22607 whole entry): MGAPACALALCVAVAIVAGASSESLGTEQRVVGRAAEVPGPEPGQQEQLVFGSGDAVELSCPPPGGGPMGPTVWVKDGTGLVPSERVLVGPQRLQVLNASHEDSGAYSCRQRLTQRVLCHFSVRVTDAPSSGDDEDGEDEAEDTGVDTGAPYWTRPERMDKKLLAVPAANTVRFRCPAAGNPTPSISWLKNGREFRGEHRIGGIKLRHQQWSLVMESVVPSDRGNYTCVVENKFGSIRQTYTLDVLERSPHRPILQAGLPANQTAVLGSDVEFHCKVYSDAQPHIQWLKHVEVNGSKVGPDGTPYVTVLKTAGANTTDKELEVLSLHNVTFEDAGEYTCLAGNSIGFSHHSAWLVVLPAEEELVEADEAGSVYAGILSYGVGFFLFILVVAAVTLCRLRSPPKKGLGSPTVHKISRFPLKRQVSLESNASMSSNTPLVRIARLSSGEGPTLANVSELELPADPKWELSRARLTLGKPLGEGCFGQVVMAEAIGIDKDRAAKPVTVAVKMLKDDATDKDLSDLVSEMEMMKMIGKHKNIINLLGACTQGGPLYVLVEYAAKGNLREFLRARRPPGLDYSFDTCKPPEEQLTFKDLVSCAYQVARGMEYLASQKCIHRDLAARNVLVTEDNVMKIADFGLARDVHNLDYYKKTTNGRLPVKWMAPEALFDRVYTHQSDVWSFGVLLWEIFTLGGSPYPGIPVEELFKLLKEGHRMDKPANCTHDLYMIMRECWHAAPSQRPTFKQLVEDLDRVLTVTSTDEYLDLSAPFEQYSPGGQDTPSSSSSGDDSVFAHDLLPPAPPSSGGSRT
pKd: −log10 of the molar value.
quantity: pKd

pKd for Fibroblast growth factor receptor 3 (Homo sapiens, UniProt P22607) with input CC(C)CN(C(=O)c1cccnc1)c1c2ccccc2c(=O)n2c1[nH]c1ccccc12 equals ≤ 5.30
